Consider the following compounds; for each one, report its TGI.
Tested on: OVCAR-3 ovarian
testMethodNotes: NCI tumour cell line growth inhibition, 48 h

Item under review: Cc1nc(Nc2ccccc2)sc1C(=O)NNC(N)=O . Reported TGI?
> 100 µM

Item under review: O=C(NN1C(=O)/C(=C/c2ccc(Cl)cc2)N=C1c1ccccc1)c1c(Cl)c(Cl)c(Cl)c(Cl)c1-c1nc2ccccc2[nH]1 . Reported TGI?
> 100 µM

Item under review: N#CC(c1ccc(Cl)cc1)c1cccc(Cl)n1 (centres undefined) . Reported TGI?
> 100 µM

Item under review: COc1cc(/C=C2\C[C@H]3[C@@H]4CC=C5C[C@@H](OC(C)=O)CC[C@]5(C)[C@H]4CC[C@]3(C)[C@H]2OC(C)=O)ccc1OCCCn1ccnc1 . Reported TGI?
26.2 µM

Item under review: C=C1[C@H](OCC(C)C)[C@@H](OCC(C)C)[C@@H](O)C(C)(C)/C=C/[C@H](C)C(=O)[C@@]2(O)C[C@H](C)[C@H](O)[C@@H]2[C@H]1OCC(C)C . Reported TGI?
> 7.5 µM

Item under review: CCN(CC)CCCN1C(=O)c2c(c(C)c3c(oc4cc(O)ccc43)c2C)C1=O . Reported TGI?
3.27 µM

Item under review: Cc1cc2c(cc1Cl)SC(NNC(=O)c1ccncc1)=NS2(=O)=O . Reported TGI?
> 10 µM

Item under review: CCCOc1ccc(/C=C/C2=[N+](CCO)CCO2)cc1 . Reported TGI?
> 100 µM

Item under review: CN(C)Cc1cc(C(=O)/C=C/c2c(Cl)cccc2Cl)cc(CN(C)C)c1O . Reported TGI?
23.6 µM

* * *

Tested on: SR leukemia
testMethodNotes: NCI tumour cell line growth inhibition, 48 h
Consider the following molecules; for each one, report its TGI.

Item under review: CCC(=O)Nc1ccc2c(c1)CN1C(=O)c3ccccc3C1=N2 . Reported TGI?
> 100 µM

Item under review: C=C1C(=O)O[C@H]2[C@H]1CC/C(COC(=O)N[C@@H](Cc1c[nH]c3ccccc13)C(=O)OC)=C\CC[C@@]1(C)O[C@@H]21 . Reported TGI?
1.51 µM

Item under review: O=C1CC(c2ccccc2)NCN1 (stereo unspecified) . Reported TGI?
> 100 µM

Item under review: COc1c(C(CC(C)C)OC(C)=O)ccc2c1C(=O)OCc1cc(C)cc(O)c1O2 (stereo unspecified) . Reported TGI?
> 100 µM

Item under review: COc1cc(N)ccc1Nc1c2ccccc2nc2ccccc12 . Reported TGI?
> 32.5 µM

Item under review: CC[N+](CC)(CC)Cc1cn(S(=O)(=O)c2ccccc2)c2ccccc12 . Reported TGI?
> 100 µM

Item under review: CCOC(=O)c1ccc2[nH]c(Cc3[nH]c4ccc(C(=O)OCC)cc4c3C)c(C)c2c1 . Reported TGI?
15.1 µM

Item under review: Cc1ccc(S(=O)(=O)Oc2coc(CO)cc2=O)cc1 . Reported TGI?
> 85.5 µM

Item under review: CCOC(=O)CCc1c(C)c2ccc(O)cc2oc1=O . Reported TGI?
> 100 µM

Item under review: N#Cc1c(SCc2ccccc2)nc2[nH]c(=S)[nH]c(=S)c2c1-c1ccco1 . Reported TGI?
> 100 µM

Item under review: NC(=O)CC1(O)C=CC(=O)C=C1 . Reported TGI?
> 100 µM

* * *

Test system: HT29 colon
testMethodNotes: NCI tumour cell line growth inhibition, 48 h; in the data active = GI50 below about 0.43 µM; inactive = the rest
Result category, one only: y = active, n = inactive

Returns: the outcome recorded for COc1cc2c(cc1OCCCCCN1CCN(c3cc(=O)oc4c(C)c(OC)ccc34)CC1)N=C[C@@H]1CCCN1C2=O in this assay.
y

Returns: the outcome recorded for Cc1cc(Nc2nc(N3CCOCC3)nc3ccccc23)n[nH]1 in this assay.
n

Returns: the outcome recorded for CN1CCN(Cc2ccc(NC(=O)c3[nH]ncc3Nc3ccnc4ccsc34)cc2)CC1 in this assay.
n

Returns: the outcome recorded for O=[N+]([O-])c1ccccc1/C=C/C=C1c2ccccc2-c2ccccc21 in this assay.
n

Returns: the outcome recorded for CCOC(=O)c1ccc(C(O)CC(=O)OC(C)(C)C)[nH]1 (stereo not given) in this assay.
n

* * *

Consider the following molecules; for each one, report its TGI.
Tested on: COLO 205 colon
testMethodNotes: NCI tumour cell line growth inhibition, 48 h
Answer format: numeric, µM implied, no suffix.

Field: TGI (COLO 205 colon). Entry: c1ccc2c(OCC3CO3)ccc(OCC3CO3)c2c1 (stereo unspecified)
23

Field: TGI (COLO 205 colon). Entry: O=C1c2ccccc2-c2ccc(O)cc21
58.4

Field: TGI (COLO 205 colon). Entry: C[C@@H](Oc1cc(-c2cnn(C3CC4(CCNCC4)C3)c2)cnc1N)c1c(F)ccc(Cl)c1Cl
0.864

Field: TGI (COLO 205 colon). Entry: CCCCC1Cc2cc(OC)ccc2-c2nc3cc(OC)ccc3n21 (stereo unspecified) (tested in a mixture with another compound)
18.7

Field: TGI (COLO 205 colon). Entry: c1ccc2c(NCCCCCCCCNc3cccc4ccccc34)cccc2c1
35.4

Field: TGI (COLO 205 colon). Entry: C=CCNC(NCC=C)=C(C(Cl)=C(Cl)Cl)[N+](=O)[O-]
37.2

Field: TGI (COLO 205 colon). Entry: CCCN(CCC)C(=S)N/N=C/c1cccc(C)n1
0.0435

Field: TGI (COLO 205 colon). Entry: COc1cc2c(cc1OCCCCCN1CCN(c3cc(=O)oc4c(C)c(OC)ccc34)CC1)N=C[C@@H]1CCCN1C2=O
0.0849

Field: TGI (COLO 205 colon). Entry: CCCN1C(=O)/C(=C/c2ccc(O)cc2)SC1=Nc1ccccc1
51.3

Field: TGI (COLO 205 colon). Entry: C/C=C/C/C=C/CCC(=O)C1OC1C(N)=O (stereo unspecified)
33.5

* * *

Test system: UO-31 renal
testMethodNotes: NCI tumour cell line growth inhibition, 48 h
propertyMeasured: TGI

Item under review: O=C1CC(n2cccc2)c2cc(Br)sc21 (centres undefined) . Reported TGI?
> 100 µM

Item under review: COC1(OC)C[C@H](C)[C@@]23O[C@]24c2cc(O)c5c(c2N[C@H]3C#C/C=C\C#C[C@]14O)C(=O)c1ccccc1C5=O . Reported TGI?
0.0176 µM

Item under review: Cc1ccc2nc(CN3CCCCC3)cc(=O)n2c1 . Reported TGI?
> 100 µM

Item under review: CC(=O)O[C@H]1C(=O)[C@@]2(C)[C@H]([C@H](OC(=O)c3ccccc3)[C@]3(O)C[C@H](OC(=O)[C@H](OC(=O)CCC(=O)OC4CCC(S/N=C(N)/N=C(\N)N(C)C)CC4)[C@@H](NC(=O)c4ccccc4)c4ccccc4)C(C)=C1C3(C)C)[C@]1(OC(C)=O)CO[C@@H]1C[C@@H]2O (some centres undefined) . Reported TGI?
> 50 µM

* * *

Test system: SW-620 colon
testMethodNotes: NCI tumour cell line growth inhibition, 48 h
Consider the following compounds; for each one, report its TGI.

Item under review: Cc1nc(Nc2ccccc2)sc1C(=O)NNC(N)=O . Reported TGI?
> 100 µM

Item under review: Cc1nc2c(s/c(=N\N)n2-c2ccccc2)c(=O)[nH]1 . Reported TGI?
> 100 µM

Item under review: CC1=C(C(=O)OC23CC4CC(CC(C4)C2)C3)C(c2ccccc2OC(F)F)C(C(=O)OC23CC4CC(CC(C4)C2)C3)=C(C)N1 (stereo not drawn) . Reported TGI?
> 100 µM

Item under review: C=C1C(=O)O[C@H]2[C@H]1CC/C(COC(=O)NCCc1c[nH]c3ccccc13)=C\CC[C@@]1(C)O[C@@H]21 . Reported TGI?
2.81 µM

Item under review: C1=Cc2nc1c(-c1ccccc1)c1ccc([n-]1)c(-c1ccccc1)c1nc(c(-c3ccccc3)c3ccc([n-]3)c2-c2ccccc2)C=C1.[Zn+2] . Reported TGI?
> 100 µM

Item under review: COc1cc(C(=O)O)ccc1NC(=O)[C@@H]1N[C@@H](CC(C)(C)C)[C@](C#N)(c2ccc(Cl)cc2F)[C@H]1c1cccc(Cl)c1F . Reported TGI?
> 26.3 µM

Item under review: N#CC(c1ccc(Cl)cc1)c1cccc(Cl)n1 (stereo not drawn) . Reported TGI?
> 100 µM

Item under review: CCN(CC)CCCC(C)N/C(c1cccc(OC)c1)=c1\c(=O)[nH]n(-c2c3ccccc3nc3ccccc23)c(=O)\c1=C(/NC(C)CCCN(CC)CC)c1cccc(OC)c1 (stereo not drawn) . Reported TGI?
6.82 µM

* * *

Consider the following compounds; for each one, report its TGI.
System: IGROV1 ovarian
testMethodNotes: NCI tumour cell line growth inhibition, 48 h
Answer format: numeric, µM implied, no suffix.

Field: TGI (IGROV1 ovarian). Entry: CCOC(=O)c1ccc2[nH]c(Cc3[nH]c4ccc(C(=O)OCC)cc4c3C)c(C)c2c1
17

Field: TGI (IGROV1 ovarian). Entry: CC(=O)C1=C(O)C2(O)C(=O)c3c(c(C)c4ccc(C)c(O)c4c3O)CC2C(N)C1=O (stereo not drawn)
13

Field: TGI (IGROV1 ovarian). Entry: Cc1nc(Cl)c(C)c(Cl)n1
34.5

Field: TGI (IGROV1 ovarian). Entry: O=C1CC(N2C(=O)/C(=C/C(Cl)=C\c3ccc([N+](=O)[O-])cc3)SC2=S)C(=O)N1c1ccc(Cl)cc1 (stereo not drawn)
3.26

Field: TGI (IGROV1 ovarian). Entry: O=C(c1cccs1)c1c(C(F)(F)F)n([O-])c2cc(C(F)(F)F)ccc2[n+]1=O
0.848

Field: TGI (IGROV1 ovarian). Entry: N#C/C(=C\c1ccc(Cl)cc1)n1nnc2cc(F)c(F)cc21
4.46

Field: TGI (IGROV1 ovarian). Entry: NC(=Nc1ccc(Cl)c(Cl)c1)c1ccccc1N
97.9

Field: TGI (IGROV1 ovarian). Entry: C=C1C(=O)O[C@H]2[C@H]1CC/C(COC(=O)NCCc1c[nH]c3ccccc13)=C\CC[C@@]1(C)O[C@@H]21
2.9

Field: TGI (IGROV1 ovarian). Entry: O=C1c2ccccc2-c2ccc(O)cc21
35.9

Field: TGI (IGROV1 ovarian). Entry: CC(C)[Si](OCC/C=C/C1CCC(=O)C1C(O)C1CCCCC1)(C(C)C)C(C)C (stereo not drawn)
28.5

Field: TGI (IGROV1 ovarian). Entry: COc1ccc(C(=O)c2ccc(OC)cc2OC)cc1
40.9

Field: TGI (IGROV1 ovarian). Entry: C/C=C/C/C=C/CCC(=O)C1OC1C(N)=O (stereo not drawn)
31.8

Field: TGI (IGROV1 ovarian). Entry: COc1cc(/C=C/C(=O)CC(=O)/C=C/c2ccc(OC(=O)CCNC34CC5CC(CC(C5)C3)C4)c(OC)c2)ccc1OC(=O)CCNC12CC3CC(CC(C3)C1)C2
8.08

Field: TGI (IGROV1 ovarian). Entry: O=C(Nc1cccc(-c2nc3ccccc3[nH]2)c1)c1cccc(NC(=O)c2ccco2)c1
17

Field: TGI (IGROV1 ovarian). Entry: CCN(CC)CCCC(C)N/C(c1cccc(OC)c1)=c1\c(=O)[nH]n(-c2c3ccccc3nc3ccccc23)c(=O)\c1=C(/NC(C)CCCN(CC)CC)c1cccc(OC)c1 (stereo not drawn)
4.99

Field: TGI (IGROV1 ovarian). Entry: Cc1nc2c(n1CCCl)C(=O)c1ccccc1C2=O
41.6

Data provenance: PubChem BioAssay (NCI)
